- target.of.assay: RSV (Long strain) F protein on infectious virus (respiratory syncytial virus (Long strain)) (UniProt P12568)
- Sequence (P12568 26-574): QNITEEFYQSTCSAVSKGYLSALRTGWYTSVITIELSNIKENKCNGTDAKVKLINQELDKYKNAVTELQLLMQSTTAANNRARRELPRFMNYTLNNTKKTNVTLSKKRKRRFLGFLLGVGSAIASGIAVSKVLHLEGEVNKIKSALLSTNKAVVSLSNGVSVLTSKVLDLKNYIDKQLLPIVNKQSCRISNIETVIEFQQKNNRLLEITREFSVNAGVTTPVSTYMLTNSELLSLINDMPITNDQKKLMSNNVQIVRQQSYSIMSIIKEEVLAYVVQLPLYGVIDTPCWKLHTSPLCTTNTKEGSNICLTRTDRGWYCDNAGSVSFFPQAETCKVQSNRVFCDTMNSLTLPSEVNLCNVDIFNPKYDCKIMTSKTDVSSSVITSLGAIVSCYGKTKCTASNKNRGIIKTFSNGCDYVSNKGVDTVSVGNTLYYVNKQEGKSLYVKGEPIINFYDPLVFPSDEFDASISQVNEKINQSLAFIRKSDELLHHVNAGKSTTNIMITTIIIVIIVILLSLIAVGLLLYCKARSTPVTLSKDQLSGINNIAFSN
- test.summary: cell-based or functional assay
parameter.measured: Fold Difference (Curve IC50), against palivizumab (fold)
Please respond with the number in fold and leave the unit unwritten.

A1h5 Fab fragment (Fab, V domains shown) VH: QVTLRESGPALVKPTQTLTLTCTFSGFSLSTAGMSVGWIRQPPGKALEWLADIWWDGKKHYNPSLKDRLTISKDTSKNQVVLKVTNMDPADTATYYCARDMIFNWYFDVWGQGTTVTVSS VL: DIQMTQSPSTLSASVGDRVTITCSLSSSVGYMHWYQQKPGKAPKLLIYDTFFHRSGVPSRFSGSGSGTEFTLTISSLQPDDFATYYCFQGSGYPFTFGGGTKVEIK    2

Consider the record given below.
**Query** I am curious: what Fold Difference (Curve IC50), against palivizumab value has been reported for A12a6 Fab fragment (Fab, V domains shown) VH: QVTLRESGPALVKPTQTLTLTCTFSGFSLSTAGMSVGWIRQPPGKALEWLADIWWDGKKDYNPSLKDRLTISKDTSKNQVVLKVTNMDPADTATYYCARDMIFNFYFDVWGQGTTVTVSS VL: DIQMTQSPSTLSASVGDRVTITCSASSRVGYMHWYQQKPGKAPKLLIYDTFKLSSGVPSRFSGSGSGTEFTLTISSLQPDDFATYYCFQGSGYPFTFGGGTKVEIK ?
**Result** 16

These entries and their values trace back to patent US20100278929A1.
